Where these numbers come from: patent US7534766B2

Details: male, human, in vivo, 41.8 h
Experimental: An open-label, inpatient, multiple-dose tigecycline, single-dose [^14C]tigecycline metabolic disposition and mass balance study was performed in six healthy male volunteers. The clinical protocol called for twelve subjects. […] Individual fecal sample homogenates, prepared from each fecal sample collected up to 48 hours following the [^14C]-labeled tigecycline dose, that contained greater than 8000 dpm/g were analyzed for metabolite profiles. […] Selected samples were also analyzed by LC/MS. […]
measurement.type: Relative Distribution (%) of radioactivity in extracted fecal homogenate
# output: bare number, implied unit %

Sample answers from the record:
{"compound": "CN(C)c1cc(NC(=O)CNC(C)(C)C)c(O)c2c1C[C@H]1C[C@H]3C(N(C)C)C(O[C@@H]4O[C@H](C(=O)O)[C@@H](O)[C@H](O)[C@H]4O)=C(C(N)=O)C(=O)[C@@]3(O)C(O)=C1C2=O (stereo in doubt) [Metabolite M7, tigecycline glucuronide]", "uom": "%", "recorded.result": 21.3}
{"compound": "CN(C)c1cc(NC(=O)CNC(C)(C)C)c(O)c2c1C[C@H]1C[C@H]3[C@@H](N(C)C)C(O[C@@H]4O[C@H](C(=O)O)[C@@H](O)[C@H](O)[C@H]4O)=C(C(N)=O)C(=O)[C@@]3(O)C(O)=C1C2=O [Metabolite M6, epimer of tigecycline glucuronide]", "uom": "%", "recorded.result": 8.9}
{"compound": "CC(C)(C)NCC(=O)O [Metabolite M3a, t-butylaminoacetic acid]", "uom": "%", "recorded.result": 6.7}

Now turn to the next compound.
Which measured Relative Distribution (%) of radioactivity in extracted fecal homogenate value corresponds to CN(C)c1cc(NC(=O)CNC(C)(C)C)c(O)c2c1C[C@H]1C[C@H]3[C@H](N(C)C)C(O)=C(C(N)=O)C(=O)[C@@]3(O)C(O)=C1C2=O [Tigecycline] ?
28.1
